- Assay system: BCL2 D103Y (Homo sapiens, UniProt P10415, D103Y)
- Measurement description: TR-FRET competitive binding assay, BCL2 D103Y
- Test parameters: Ki determined from IC50, read-out: TR_FRET EKI_Bcl2 D103Y
- Procedure: The relative binding potency of each compound was determined in a competitive binding assay using time resolved-fluorescence resonance energy transfer (TR-FRET). […] The degree of binding or corresponding compound inhibition can be quantified by the TR-FRET signal between the terbium donor and fluorescein acceptor. […] TR-FRET measurements were performed on a Biotek Synergy Neo plate reader. […] The TR-FRET signal was calculated as the emission-ratio at 520 nm over 495 nm. […]
Recorded endpoint: Ki
Remember to follow the number with its unit.

Solved cases below.
# Sample smiles, Recorded endpoint, Data value
data = [
    ("Cc1c(C(=O)N(c2ccc(O)cc2)c2cnc3c(cnn3C)c2)cc(-c2cc3c(cc2C(=O)N2Cc4ccccc4C[C@H]2C)CN(C(=O)Cc2ccc(OCCN4CCOCC4)cc2)CC3)n1C", "Ki", "0.47 nM"),
    ("Cc1c(C(=O)N(c2ccccc2)c2ccnn2C)cc(-c2cc3c(cc2C(=O)N2Cc4ccccc4C[C@H]2C)CN(C(=O)Cc2ccc(OCCN4CCOCC4)cc2)CC3)n1C", "Ki", "0.37 nM"),
    ("COc1ccc(N(C(=O)c2cc(-c3cc4c(cc3C(=O)N3Cc5ccccc5C[C@H]3CN3CCCCC3)CN(C(=O)Cc3ccc(OCCN5CCOCC5)cc3F)CC4)n(C)c2C)c2ccc(O)cc2)cn1", "Ki", "0.13 nM"),
    ("Cc1c(N(C(=O)c2cc(-c3cc4c(cc3C(=O)N3Cc5ccccc5C[C@H]3C)CN(C(=O)c3cnc(-c5ccccc5)s3)CC4)n(C)c2C)c2ccc(O)cc2)cc(C#N)n1C", "Ki", "4.1 nM"),
]

Enquiry: Request body: readout Ki, system BCL2 D103Y (Homo sapiens, UniProt P10415, D103Y), query Cc1c(C(=O)N(c2ccc(O)cc2)c2cc(C#N)n(C(F)F)c2C)cc(-c2cc3c(cc2C(=O)N2Cc4ccccc4C[C@H]2CN2CC4(CCC4)C2)CN(C(=O)Cc2ccc(OCCC4CCOCC4)cc2)CC3)n1C . Return the value.
Return: 0.15 nM
